- method notes: inhibitors of TNFa-induced NFkB p65 translocation, primary screen, imaging, HUVEC, MLSMR starter and 10KST1 sets (AID 438);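 note: compound added about 3h40 before a 20 min TNFalpha stimulation; signal is the nuclear over cytoplasmic p65 intensity ratio per well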
- measurement setup: HUVEC TNFa-induced p65 nuclear translocation; at 2 µM, stronger effect = higher value, 0% TNFa-plus-vehicle, 100% no-TNFa wells
inhibition for assorted compounds
measured property: inhibition (%)

| compound | observed value |
| --- | --- |
| CCN(CC)CCN1C(=O)C(=O)/C(=C(/O)c2ccc(F)cc2)C1c1cccnc1 (centres undefined) | -18.4 |
| CCN(CC)CCNc1nc(-c2ccco2)c2c(c1C#N)CC(C)(C)OC2 | -4.5 |
| O=C1CCC(=O)N1CNc1ccccn1 | -5 |
| CC1(C)Cc2c(sc3nc4n(c(=O)c23)CCC4)CO1 | -9.4 |
| COCc1[nH]nc2c1C(c1ccnc3ccccc13)C(C#N)=C(N)O2 (centres undefined) | -5 |
| COc1ccc(CCn2c(=N)c(C#N)cc3c(=O)n4ccccc4nc32)cc1 | 1.4 |
| C[C@]12CC[C@@H]3c4ccc(O)cc4C(=O)C[C@H]3[C@@H]1CC[C@@H]2O | -1.5 |
| CCCCCc1nc2sc3c(c2c(=O)n1N)CCC3 | -11.1 |
| COC(=O)c1ccc(Oc2nc3ccccc3n3c(C)nnc23)cc1 | -6.8 |
| Cc1cc(COc2ccccc2OCCN2CCN(C)CC2)no1 | -2.5 |
| COc1cccc(N2CCN(c3ncnc4c3[nH]c3ccc(F)cc34)CC2C)c1 (centres undefined) | -7 |
| CCN(CC)C(=O)CN(C#N)c1nc(NC(C)C)nc(NC(C)C)n1 | 5.2 |
| CO[C@@]1(NC(=O)CSCC#N)C(=O)N2C(C(=O)O)=C(CSc3nnnn3C)CS[C@@H]21 | -3.9 |
| COC(=O)CC1SC(=O)NC1=O (centres undefined) | -6.8 |
| c1ccc(OCc2nn3c(C4CCCCC4)nnc3s2)cc1 | -8.1 |
| Cn1c(=NCC(O)COc2ccccc2)sc2ccccc21 (centres undefined) | 7.1 |
| COC(=O)CN(c1nc(C)cc(OC)n1)S(=O)(=O)c1ccccc1 | -3.9 |
| CCC1SC(N)=NC1=O (centres undefined) | -23.4 |
| CCCN(CCC)C(=O)C(CCC(=O)O)NC(=O)c1ccccc1 (centres undefined) | -1.1 |
| CC1CN(C2CCN(S(=O)(=O)c3ccc4ccccc4c3)CC2)CC(C)O1 (centres undefined) | -19.4 |
| CN1CCN(C(=O)CSc2nc(-c3ccncc3)ccc2C#N)CC1 | -11.2 |
| COc1ccc(Cn2c(N)c(C#N)c3nc4ccccc4nc32)cc1OC | 2.3 |
| N[C@@H](Cc1ccc(O)c(I)c1)C(=O)O | 0.1 |
| Cc1cc(NS(=O)(=O)c2ccc(N)cc2)no1 | 2.1 |

* * *

- method notes: DUSP6 inhibitors restoring Erk phosphorylation by chemical complementation, primary imaging in DUSP6-transfected HeLa (AID 609)
- measurement setup: HeLa MKP-3 transfected, phospho-Erk imaging KS statistic; measured here: nuclear c-Myc green intensity z-score; at 10 µM; cells stimulated with TPA for 15 min
// label = true if z-score is not less than -0.5, otherwise false

| compound | category label |
| --- | --- |
| OCCN1CCN(CCCN2c3ccccc3Sc3ccc(Cl)cc32)CC1 | true |
| CCCCc1nc(NCCNC(=O)c2ccco2)c(C#N)c2c1CSC(C)(C)C2 | false |
| COc1ccc(C2=CC(c3cccc(OC)c3)n3nnnc3N2)cc1 (stereo not given) | false |
| CCOC(=O)c1c(C)n(C)c2ccc(O)c(S(=O)(=O)c3ccccc3)c12 | true |
| Nc1c(C(=O)NCC2CCCO2)c2nc3ccccc3nc2n1/N=C/c1ccncc1 (stereo not given) | true |
